Listed here are binders together with their documented IC50 m.
target: murine MMP-12 (mouse, UniProt P34960 110-473, limits assumed); assay: cell-based or functional assay
Sequence (P34960 110-473 limits assumed): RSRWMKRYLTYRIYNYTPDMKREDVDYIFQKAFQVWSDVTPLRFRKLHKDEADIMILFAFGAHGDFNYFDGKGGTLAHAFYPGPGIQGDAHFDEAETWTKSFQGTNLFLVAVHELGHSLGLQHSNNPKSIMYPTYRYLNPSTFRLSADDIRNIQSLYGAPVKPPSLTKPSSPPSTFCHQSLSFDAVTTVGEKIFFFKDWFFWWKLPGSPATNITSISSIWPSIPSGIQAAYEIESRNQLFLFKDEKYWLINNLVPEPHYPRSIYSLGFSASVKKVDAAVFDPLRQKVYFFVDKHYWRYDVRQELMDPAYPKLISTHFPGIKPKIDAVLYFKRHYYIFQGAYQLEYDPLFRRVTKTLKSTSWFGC

binder: 539B-M0065-G03 (Fab, V domains shown) VH: EVQLLESGGGLVQPGGSLRLSCAASGFTFSWYGMGWVRQAPGKGLEWVSVIVSSGGFTQYADSVKGRFTISRDNSKNTLYLQMNSLRAEDTAVYYCAKDIRGAYSSGLFDYWGRGTLVTVSS VL: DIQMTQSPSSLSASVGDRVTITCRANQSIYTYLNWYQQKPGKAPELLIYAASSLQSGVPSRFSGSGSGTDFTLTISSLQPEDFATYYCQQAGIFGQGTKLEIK
IC50 m: < 10 nM (not printed; inferred)

binder: 539B-M0063-G01 (Fab, V domains shown) VH: EVQLLESGGGLVQPGGSLRLSCAASGFTFSWYWMVWVRQAPGKGLEWVSSIGPSGGDTYYADSVKGRFTISRDNSKNTLYLQMNSLRAEDTAVYYCAKDIRGAYSSGLFDYWGRGTLVTVSS VL: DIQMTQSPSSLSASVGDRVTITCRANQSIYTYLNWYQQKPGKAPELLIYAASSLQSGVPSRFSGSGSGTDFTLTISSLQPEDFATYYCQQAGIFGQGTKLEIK
IC50 m: > 10 nM (not printed; inferred)

Turning to the following binder.
Enquiry: Field request: IC50 m | item: 539B-M0067-B06 (Fab, V domains shown) VH: EVQLLESGGGLVQPGGSLRLSCAASGFTFSWYWMHWVRQAPGKGLEWVSGIVSSGGTTIYADSVKGRFTISRDNSKNTLYLQMNSLRAEDTAVYYCAKDIRGAYSSGLFDYWGRGTLVTVSS VL: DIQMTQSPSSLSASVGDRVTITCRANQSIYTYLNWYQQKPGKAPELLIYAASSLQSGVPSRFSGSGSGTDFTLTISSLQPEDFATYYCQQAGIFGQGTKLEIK
Return: < 10 nM (not printed; inferred)
